// provenance: paper PMC10397247

Molecular target: T1, P7A-bH
T1 chain: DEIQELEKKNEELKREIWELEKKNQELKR
Assay: two-hybrid library CCNG1;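 note: natural log of median RNA to DNA barcode read ratio; higher means stronger binding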
Experimental readout: interaction score

[
  {
    "Binder": "DEIQELEKKNEELKREIWELEKKNQELKR [P7A-bH]",
    "Readout number": -0.0377
  },
  {
    "Binder": "DEIQELEKEIEELERKNWELKKKNQELKR [P3A-bH]",
    "Readout number": 0.468
  },
  {
    "Binder": "DENQELEKEIEELEREIWELEKKNQELKR [P11A-bH]",
    "Readout number": 0.921
  },
  {
    "Binder": "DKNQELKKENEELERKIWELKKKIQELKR [P10A-bH]",
    "Readout number": 0.686
  },
  {
    "Binder": "DKIQELKKKNEELKRKNWELKKKIQELKR [P2A-bH]",
    "Readout number": -0.557
  },
  {
    "Binder": "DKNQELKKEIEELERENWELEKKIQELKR [P6A-bH]",
    "Readout number": 1.35
  },
  {
    "Binder": "DEIQELEKENEELERENWELEKEIQELER [P1A-bH]",
    "Readout number": -0.716
  }
]
